# key: entry, value: IC50
# TESTED_SYSTEM: Beta-secretase 1 (Homo sapiens, UniProt P56817)
# Sequence (P56817 whole entry): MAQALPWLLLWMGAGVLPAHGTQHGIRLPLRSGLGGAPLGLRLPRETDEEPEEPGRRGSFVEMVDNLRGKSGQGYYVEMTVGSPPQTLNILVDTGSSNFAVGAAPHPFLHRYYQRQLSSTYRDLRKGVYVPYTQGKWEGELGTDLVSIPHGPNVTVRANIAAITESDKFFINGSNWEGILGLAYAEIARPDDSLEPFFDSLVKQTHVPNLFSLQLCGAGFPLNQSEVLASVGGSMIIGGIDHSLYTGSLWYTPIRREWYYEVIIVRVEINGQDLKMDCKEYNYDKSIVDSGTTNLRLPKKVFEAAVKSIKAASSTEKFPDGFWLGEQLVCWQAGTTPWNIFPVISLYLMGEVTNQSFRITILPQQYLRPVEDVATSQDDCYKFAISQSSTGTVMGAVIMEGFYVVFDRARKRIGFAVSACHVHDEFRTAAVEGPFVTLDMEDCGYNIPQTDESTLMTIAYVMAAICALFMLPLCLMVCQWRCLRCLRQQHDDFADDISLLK
Enter your answer as a number in nM; do not include the unit.

Previously resolved entries follow.
structure_string=CCCN(CCC)C(=O)c1cc(C)cc(C(=O)N[C@@H](Cc2cc(F)cc(F)c2)[C@H](O)[C@H]2C[C@@H](C3CCCCC3)CCN2)c1 tested_system="Beta-secretase 1 (Homo sapiens, UniProt P56817)" numeric_value=610
structure_string=CCCN(CCC)C(=O)c1cc(C)cc(C(=O)N[C@@H](Cc2cc(F)cc(F)c2)[C@H](O)[C@H]2C[C@@H](OCC3CCCCC3)CCN2)c1 tested_system="Beta-secretase 1 (Homo sapiens, UniProt P56817)" numeric_value=12
structure_string=CCCN(CCC)C(=O)c1cc(C)cc(C(=O)N[C@@H](Cc2cc(F)cc(F)c2)[C@H](O)[C@H]2CCCN2)c1 tested_system="Beta-secretase 1 (Homo sapiens, UniProt P56817)" numeric_value=65

[Q] Which IC50 is listed for CCCN(CCC)C(=O)c1cc(C)cc(C(=O)N[C@@H](Cc2cc(F)cc(F)c2)[C@H](O)[C@H]2C[C@@H](CC3CCCCC3)CCN2)c1 ?
[A] 630

----------
# TESTED_SYSTEM: Beta-secretase 1 (Homo sapiens)
Recorded measurements of pIC50, one per entry
When answering, recall that pIC50 equals minus log10 of the concentration in mol/L, and write that number alone.

[Q] Give recorded pIC50 with Beta-secretase 1 (Homo sapiens) for the following molecule: CCCN(CCC)C(=O)c1cc(C)cc(C(=O)N[C@@H](Cc2cc(F)cc(F)c2)[C@H](O)[C@H]2C[C@@H](OCCN(C)C)CCN2)c1
[A] 6.32

[Q] // lookup pIC50 | system=Beta-secretase 1 (Homo sapiens) | key= CCC[C@H]1CCN[C@@H]([C@@H](O)[C@H](Cc2cc(F)cc(F)c2)NC(=O)c2cc(C)cc(C(=O)N(CCC)CCC)c2)C1
[A] 5.92

[Q] Recorded pIC50 for CCCN(CCC)C(=O)c1cc(C)cc(C(=O)N[C@@H](Cc2cc(F)cc(F)c2)[C@H](O)[C@H]2C[C@@H](Cc3ccc(OC)cc3)CCN2)c1 with Beta-secretase 1 (Homo sapiens), please?
[A] 5.70

[Q] Give recorded pIC50 with Beta-secretase 1 (Homo sapiens) for the following molecule: CCCN(CCC)C(=O)c1cc(C)cc(C(=O)N[C@@H](Cc2cc(F)cc(F)c2)[C@H](O)[C@H]2C[C@@H](OCCOC)CCN2)c1
[A] 6.96

[Q] Missing value: pIC50, Beta-secretase 1 (Homo sapiens), entry CCCN(CCC)C(=O)c1cc(C)cc(C(=O)N[C@@H](Cc2cc(F)cc(F)c2)[C@H](O)[C@H]2C[C@@H](OC(C)C)CCN2)c1 . Fill in?
[A] 6.07

----------
System: Beta-secretase 1 (Homo sapiens) | Read-out: pIC50
// pIC50 is dimensionless: -log10 of concentration (M)

structure_string=CCCN(CCC)C(=O)c1cc(C)cc(C(=O)N[C@@H](Cc2cc(F)cc(F)c2)[C@H](O)[C@H]2C[C@@H](CCc3ccccc3)CCN2)c1 numeric_value=6.72
structure_string=CCCN(CCC)C(=O)c1cc(C)cc(C(=O)N[C@@H](Cc2cc(F)cc(F)c2)[C@H](O)[C@H]2C[C@@H](OCCOC)CCN2)c1 numeric_value=8.40
structure_string=CCCN(CCC)C(=O)c1cc(C)cc(C(=O)N[C@@H](Cc2cc(F)cc(F)c2)[C@H](O)[C@H]2C[C@@H](OCCN(C)C)CCN2)c1 numeric_value=7.59

# ---- query compound ----
[Q] Give its pIC50 value. Item: CCCN(CCC)C(=O)c1cc(C)cc(C(=O)N[C@@H](Cc2cc(F)cc(F)c2)[C@H](O)[C@H]2C[C@@H](OC(C)C)CCN2)c1
[A] 6.92

These data points were gathered from ChEMBL document CHEMBL1142255.
